Ref: ChEMBL document CHEMBL3039007

Target: Solute carrier organic anion transporter family member 1B3 (Homo sapiens, UniProt Q9NPD5)
Sequence (Q9NPD5 whole entry): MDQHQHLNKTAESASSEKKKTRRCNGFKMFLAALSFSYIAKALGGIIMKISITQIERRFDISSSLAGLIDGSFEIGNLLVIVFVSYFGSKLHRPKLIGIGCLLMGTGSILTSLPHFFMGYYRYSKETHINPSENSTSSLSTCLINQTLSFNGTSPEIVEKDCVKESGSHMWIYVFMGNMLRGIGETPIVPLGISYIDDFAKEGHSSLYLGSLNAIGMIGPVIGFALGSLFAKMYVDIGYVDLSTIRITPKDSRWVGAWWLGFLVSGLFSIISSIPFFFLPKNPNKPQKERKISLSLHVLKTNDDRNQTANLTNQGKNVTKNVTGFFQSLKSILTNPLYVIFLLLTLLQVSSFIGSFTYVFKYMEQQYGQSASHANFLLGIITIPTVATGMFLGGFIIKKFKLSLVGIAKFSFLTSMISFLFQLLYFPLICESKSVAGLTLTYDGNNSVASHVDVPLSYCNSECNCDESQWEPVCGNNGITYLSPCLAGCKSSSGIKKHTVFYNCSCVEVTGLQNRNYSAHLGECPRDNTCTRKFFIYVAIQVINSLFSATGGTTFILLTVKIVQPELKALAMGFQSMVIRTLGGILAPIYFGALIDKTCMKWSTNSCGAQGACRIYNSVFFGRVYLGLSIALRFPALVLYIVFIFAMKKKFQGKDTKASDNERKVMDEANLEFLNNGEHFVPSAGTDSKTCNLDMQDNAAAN
Conditions: chinese hamster, cho, 10 µM

# Molecule, Target, residual activity, %
rows = [
    ("C[C@]12CCC(=O)C=C1CC[C@@H]1[C@@H]2C(=O)C[C@@]2(C)[C@H]1CC[C@]2(O)C(=O)CO", "Solute carrier organic anion transporter family member 1B3 (Homo sapiens, UniProt Q9NPD5)", 69.54),
    ("Nc1c2ccccc2nc2ccccc12", "Solute carrier organic anion transporter family member 1B3 (Homo sapiens, UniProt Q9NPD5)", 80.82),
    ("CN(C)CCCN1c2ccccc2Sc2ccc(Cl)cc21", "Solute carrier organic anion transporter family member 1B3 (Homo sapiens, UniProt Q9NPD5)", 97.66),
    ("COc1c(N2CCNC(C)C2)c(F)cc2c(=O)c(C(=O)O)cn(C3CC3)c12 (stereo unspecified)", "Solute carrier organic anion transporter family member 1B3 (Homo sapiens, UniProt Q9NPD5)", 96.61),
    ("O=C1C[C@@H]2OCC=C3CN4CC[C@]56c7ccccc7N1[C@H]5[C@H]2[C@H]3C[C@H]46", "Solute carrier organic anion transporter family member 1B3 (Homo sapiens, UniProt Q9NPD5)", 93.97),
    ("COC(=O)CC[C@@H](C)[C@H]1CC[C@H]2[C@@H]3CC[C@@H]4C[C@H](O)CC[C@]4(C)[C@H]3C[C@H](O)[C@]12C [METHYL DEOXYCHOLATE]", "Solute carrier organic anion transporter family member 1B3 (Homo sapiens, UniProt Q9NPD5)", 71.46),
]
